The origin of these recorded values is patent US20220073643A1.

target: human Claudin18.2 (human); experiment: cell-based or functional assay
Listed binders paired with reported ADCC % Relative activity
Please make sure the unit comes right after the number.

Observe how each entry below is paired with its result.
## Task Suppose we examine the binder chimeric 194D3B2 (antibody, human IgG1, kappa, V domains shown, chimeric, human IgG1/kappa constant regions) VH: QAYLQQSGAELVRSGASVKMSCKASGYPFTSYNMHWVKQTPGQGLEWVGYIYPGNGGTNYNQKFRDKATLTADTSSSTAYMQISRLTSDDSAVYFCLTGRGFAYWGQGTLVTVSA VL: DIVMTQSPSSLIVTPGERVTMSCKSSQSLLNSGNQKNYLTWYQQKPGQPPKLLIYRASTRESGVPDRFTGSGSGTDFTLTISSVQAEDLAVYYCQNDYSYPLTFGIGTKLELKR ; what ADCC % Relative activity value has been reported?
## Result 83.6%

## Task Suppose we examine the binder chimeric 185F2G12 (antibody, human IgG1, kappa, V domains shown, chimeric, human IgG1/kappa constant regions) VH: QAYLQQSGAELVRSGASVKMSCKASGYTFTSYNMHWVRQTPGQGLEWIGYIYPGNGGTNYSQKFKGKASLTADTSSTTAYMQISSLTSEDSAVYFCATGRGFAYWGQGTLVTVSA VL: DIVMTQSPSSLTVTAGEKVTLSCKSSQSLFNTGNQKNYLTWYQQKPGQPPKLLIFRASTRESGVPDRFTGSGFGTDFTLTISSVQAEDLAVYYCQNDFSYPLTFGAGTKLELKR ; what ADCC % Relative activity value has been reported?
## Result 399%

## Task Suppose we examine the binder chimeric 273C10E5 (antibody, human IgG1, kappa, V domains shown, chimeric, human IgG1/kappa constant regions) VH: QVQLQQSGAELVKPGASVKLSCKASGYTFTSFGINWLRQRPEQGLEWIGWIFPGDGNSKYNENFKGKATLTTDKSSSTAYMQVTRLTSEDSAVYFCARFYYGNSFANWGQGTLVTVSA VL: DIVMTQSPSSLTVTAGEKVTMSCKSSQSLLNSGNQKNYLTWYQQKPGQPPKLLIYWAATRESGVPDRFAGSGSGTDFTLTISSVQAEDLAVYYCQNDYFYPFTFGAGTKLELKR ; what ADCC % Relative activity value has been reported?
## Result 92.1%

## Task Suppose we examine the binder chimeric 262C7C10 (antibody, human IgG1, kappa, V domains shown, chimeric, human IgG1/kappa constant regions) VH: QAYLQQSGAELVRSGASVKMSCKASGYTFTNYNIHWVKQTPGQGLEWIGYIYPGNGGNYYNQKFKGKATLTADTSSITAYMQISSLTSEDSAVYFCARDYYGNSFAYWGQGTLVTVSA VL: DIVMTQSPSSLTVTAGEKVTMNCKSSQSLLNSGNQKNYLTWYQQKPGQPPKLLIYWASTRESGVPDRFTGSGSGTDFTLTISSVQAEDLAIYYCQNDYYYPLTFGAGTKLELKR ; what ADCC % Relative activity value has been reported?
## Result 105%

## Task Suppose we examine the binder chimeric 257G7B9 (antibody, human IgG1, kappa, V domains shown, chimeric, human IgG1/kappa constant regions) VH: QAYLQQSGAELVRSGASVKMSCKASGYTFTSHNLHWVKQTPGQGLEWIGYIYPGNGNTNYNQKFKGKATLTADTSSSTAYMQISSLTSEDSAVYFCTRDYYGNSFAYWGQGTLVTVSA VL: DIVMTQSPSSLTEKAGERVSMSCKSSQSLFNSGNQKNYLTWYQQKPGQPPKLLIYWASTRESGVPDRFTGSGSGTDFTLTISSVQAEDLAVYYCQNNYWFPFTFGAGTKLELKR ; what ADCC % Relative activity value has been reported?
## Result 55.8%

## Task Suppose we examine the binder chimeric 260G9E8 (antibody, human IgG1, kappa, V domains shown, chimeric, human IgG1/kappa constant regions) VH: QADLQQSGAELVRSGASVKMSCKASGYTFASHNMHWVKQTPGQGLEWIGYIYPGNGGTKYNQKFTGKATLTADTSSSTAYMQITSLTSEDSAVYFCARDYYGNSFAYWGQGTLVTVSA VL: DIVMTQSPSSLTEKAGEKVSMRCKSSQSLLNSGNQKNYLTWYQQKPGQPPKLLIYWASTRESGVPDRFTGSGSGTDFTLTISSVQADDLAVYYCQNDYMFPFTFGAGTKLELKR ; what ADCC % Relative activity value has been reported?
## Result 104%

## Task Suppose we examine the binder chimeric 370E2B12C3 (antibody, human IgG1, kappa, V domains shown, chimeric, human IgG1/kappa constant regions; also called 370E2B12C3-chimeric) VH: QVQLKESGPGLVAPSQSLSITCTVSGFSLTTYGVHWVRQPPGKGLEWLGVIWAGGSTNYNSALMSRVSINKDNSKSQVFIKMNSLQADDTALYYCARAAYYGNGLDYWGQGTTLTVSS VL: DIVMTQSPSSLTVTAGEKVTMSCKSSQTLLNSGNQKNYLTWYQQKPGQPPKLLIYWASTGESGVPDRFTGSGSGTDFTLTISSVQAEDLAVYFCQNAYFYPFTFGGGTKLEIKR ; what ADCC % Relative activity value has been reported?
## Result 75.7%

## Task Suppose we examine the binder chimeric 203A6C9 (antibody, human IgG1, kappa, V domains shown, chimeric, human IgG1/kappa constant regions) VH: QVQLKQSGPGLVQPSQSLSITCTVSGFSLTRYGVHWVRQSPGKGLEWLGVIWSGGNTDYNAAFISRLNIRKDNSKSQVFFKMNSLKPNDTAIYYCARAAYFGNSFDYWGQGTTLTVSS VL: DIVMTQSPSSLPVTAGEKVTMSCKSSQSLLNSGNQKNYLTWYQQKPGQPPKLLIYWASTRDSGVPDRFTGSGSGTDFTLTISSVQAEDLAVYYCQNNYIYPLTFGAGTKLELKR ; what ADCC % Relative activity value has been reported?
## Result 66.4%

## Task Suppose we examine the binder chimeric 237D2A4 (antibody, human IgG1, kappa, V domains shown, chimeric, human IgG1/kappa constant regions; also called 237D2A4-Chimeric) VH: QVQLKESGPGLVAPSQSLSITCTVSGFSLTSYGVSWVRQPPGKGLEWLGVIWGDGSTNYHSTLISRLRISKDKSKSQVFLKLNSLQTDDTATYYCAKAGRGNALDYWGQGTSVTVSS VL: DIVMTQSPSSLTVTAGEKVTMSCKSSQSLLNSGNQKNYLTWYQQKPGQPPKLLIYWASTRESGVPDRFTGSGSGTDFTLTISSVQAEDLAVYYCQNDYSFPLTFGAGTKLELKR ; what ADCC % Relative activity value has been reported?
## Result 169%

More entries:
## Task Suppose we examine the binder chimeric 265E6G2 (antibody, human IgG1, kappa, V domains shown, chimeric, human IgG1/kappa constant regions) VH: QAYLQQSGAELVRSGASVKMSCKASGYTFTSYNMHWVKQTPGQGLEWIGYIYPGNGGTNYNQKFKGKATLTADTSSSTAYMQISSLTSEDSAVYFCARDYYGNSFAYWGQGTLVTVSA VL: DLVMTQSPSSLTVTAGEKVTMSCKSSQSLLNSGNQKNYLTWYQQKPGQPPKLLIYWASTRESGVPDRFTGSGSGTDFTLTISNIQAEDLAVYYCQNDYSYPLPFGAGTKLELRR ; what ADCC % Relative activity value has been reported?
## Result 77.8%
